- assay: Protein binding in rat plasma at 1 uM after 4 hrs by LC-MS/MS analysis
- Assay type: ADME, cell-free
- run_parameters: read-out: PPB (converted)
test_readout: fraction unbound at 4 h, 1 µM
Respond numerically, and do not add a unit to the figure.

// recorded fraction unbound at 4 h, 1 µM for C[C@H]1CO[C@@H]2Cn3cc(C(=O)NCc4ccc5nonc5c4)c(=O)c(O)c3C(=O)N12 : 0.9

The value of fraction unbound at 4 h, 1 µM measured for the compound C[C@H]1CO[C@@H]2Cn3cc(C(=O)NCc4ccc(F)nc4F)c(=O)c(O)c3C(=O)N12 turned out to be 0.011

----------
Exercise: for every item that follows, state its recorded selectivity ratio.
- assay: Selectivity index, ratio of CC50 for human CEM-SS cells to EC50 for Antiviral activity against HIV1 3B infected in human CEM-SS cells
- Type: toxicity, cell-based
- run_parameters: CEM-SS cells, read-out: Ratio CC50/EC50

What the record says about C[C@@H]1CCO[C@H]2Cn3cc(C(=O)NCc4ccc(F)nc4F)c(=O)c(O)c3C(=O)N12 : selectivity ratio is > 1.9

What the record says about C[C@H]1CO[C@@H]2Cn3cc(C(=O)NCc4c(F)cncc4F)c(=O)c(O)c3C(=O)N12 : selectivity ratio is > 3.8

# selectivity ratio of C[C@H]1CO[C@@H]2Cn3cc(C(=O)NCc4cccc5cccnc45)c(=O)c(O)c3C(=O)N12 = > 4.6

Kindly note the recorded selectivity ratio for C[C@H]1CO[C@@H]2Cn3cc(C(=O)NCc4cccs4)c(=O)c(O)c3C(=O)N12 , which is > 6.9

Input C[C@H]1CO[C@@H]2Cn3cc(C(=O)NCc4cc5c(cc4Br)OCO5)c(=O)c(O)c3C(=O)N12 . Output selectivity ratio: > 5.2

Briefly, selectivity ratio measured for C[C@H]1CO[C@@H]2Cn3cc(C(=O)NCc4nn(C)c(Cl)c4Cl)c(=O)c(O)c3C(=O)N12 : > 16.9

----------
- assay: MRTlast in Sprague-Dawley rat at 10 mg/kg, po up to 24 hrs by LC-MS/MS analysis
- Assay type: ADME, organism-based
- run_parameters: in vivo
test_readout: MRT last at 24 h (h)
Write it as a number; the unit h goes unstated.

The recorded MRT last at 24 h for entry C[C@H]1CO[C@@H]2Cn3cc(C(=O)NCc4ccc5nonc5c4)c(=O)c(O)c3C(=O)N12 equals 11.3

----------
- assay: Drug concentration in Sprague-Dawley rat at 1 mg/kg, iv after 24 hrs by LC-MS/MS analysis
- Type: ADME, organism-based
- run_parameters: in vivo, read-out: Drug uptake
test_readout: concentration at 24 h (ng/mL)
Express it in ng/mL; write the number only.

concentration at 24 h recorded for this compound, C[C@H]1CO[C@@H]2Cn3cc(C(=O)NCc4ccc(F)nc4F)c(=O)c(O)c3C(=O)N12 , is 5430

----------
- assay: Tmax in Sprague-Dawley rat at 2 mg/kg, iv up to 24 hrs by LC-MS/MS analysis
- Type: ADME, organism-based
- run_parameters: in vivo
test_readout: Tmax (h)
Express the result in h but write the number alone.

Recorded result, C[C@H]1CO[C@@H]2Cn3cc(C(=O)NCc4ccc5nonc5c4)c(=O)c(O)c3C(=O)N12 , Tmax: 1

----------
- assay: Drug concentration in Sprague-Dawley rat at 2 mg/kg, iv after 24 hrs by LC-MS/MS analysis
- Format: ADME, organism-based
- run_parameters: in vivo, read-out: Drug uptake
test_readout: concentration at 24 h (ng/mL)
Enter your answer as a number in ng/mL; do not include the unit.

For C[C@H]1CO[C@@H]2Cn3cc(C(=O)NCc4ccc5nonc5c4)c(=O)c(O)c3C(=O)N12 the compound record lists concentration at 24 h as 16600

Data origin: ChEMBL document CHEMBL4680174
